Give growth inhibition for every item shown.
PROTOCOL_TEXT: Restrictive medium S. cerevisiae growth inhibition, OD615, pilot screen of yeast lifespan reduction project, restrictive growth control (AID 706);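 note: modified DeaD lifespan yeast strain shifted to restrictive glucose medium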
MEASUREMENT_SETUP: OD615, 48 h, at 10 µM, hits give high values
Reply with just the number (in %).

Data request: What growth inhibition value was documented for this molecule, O=C(NCc1ccco1)C1c2ccccc2Oc2ccccc21 ?
Data returned: 6.04

Data request: Please look up its growth inhibition: CCOc1ccc2nc(N3CCC(C(=O)N4CCN(c5ccccn5)CC4)CC3)sc2c1
Data returned: -8.55

Data request: Item Cc1ccc2cc(-c3noc(C4CCCO4)n3)c(=O)[nH]c2c1 (stereo unspecified) has what recorded growth inhibition?
Data returned: -7.12

Data request: Which growth inhibition is listed for CCCCC(=O)Nc1nc2ccc3nc(C)sc3c2s1 ?
Data returned: -2.65

Data request: Dear colleague, I am looking for the recorded growth inhibition of the following molecule: CCOC(=O)C1=C(N)OC2=C(C(=O)CCC2)C1c1cccnc1 (stereo unspecified)
Data returned: 4.47

Data request: Which growth inhibition is reported for this molecule? COc1cc(C(=O)NCc2ccc3c(c2)OCO3)ccc1OCc1c(C)noc1C
Data returned: -2.32

Data request: Which growth inhibition is listed for O=C1CCCc2c1[nH]c1c(Br)cccc21 ?
Data returned: -1.3

Data request: Query: growth inhibition; subject: COc1cccc(C2CC(=O)N3CN(c4ccccc4F)CSC3=C2C#N)c1 (stereo unspecified)
Data returned: 2.71

Data request: Fill in: growth inhibition of Cc1c(NC(=O)c2ccco2)cccc1-c1nc2cccnc2s1 is ___
Data returned: -4.21

Data request: For CCc1nnc(NC(=O)CCC(=O)O)s1 , what is its reported growth inhibition?
Data returned: -5.46

Data request: Given CCOC(=O)N1CCN(CC(=O)Nc2cc(OCC)ccc2OCC)CC1 , state its recorded growth inhibition.
Data returned: -19.7

Data request: Query: growth inhibition; subject: O=c1[nH]c(SCc2ccccc2Cl)nc2c1CCC2
Data returned: -1.71

Data request: Suppose we examine the molecule COC(=O)C(CC(C)C)Oc1ccc2c(C)cc(=O)oc2c1 (stereo unspecified) ; what growth inhibition value has been reported?
Data returned: 5.8

Data request: Could you tell me which growth inhibition is on file for COc1cc(C2C(C(=O)c3ccco3)=C(O)C(=O)N2CCc2ccccc2)ccc1O (stereo unspecified) ?
Data returned: -3.74

Data request: // lookup growth inhibition for Cc1ccc(NC(=O)CC2SC3=NCCN3C2=O)cc1 (stereo unspecified)
Data returned: 10.6

Data request: Looking for the measured growth inhibition of O=C(C1CCC(CNc2c(N3CCCCC3)c(=O)c2=O)CC1)N1CCN(c2ccccn2)CC1 (stereo unspecified) , can you help?
Data returned: -1.08

Data request: Entry CCn1c(=O)c2cc(C(=O)N3CCN(C(=O)c4ccco4)CC3)sc2c2ccccc21 : reported growth inhibition = ?
Data returned: -0.815

Data request: Which growth inhibition value is on record for Cc1cc(F)ccc1S(=O)(=O)Nc1c(C)n(C)n(-c2ccccc2)c1=O ?
Data returned: 0.315

Data request: Any idea what growth inhibition was measured for Cc1cc(Nc2cc(C)on2)n2ncnc2n1 ?
Data returned: -10

Data request: Which value of growth inhibition has been reported for Cc1cccc(Nc2ncnc3nc[nH]c23)c1C in the records?
Data returned: -8.69

Data request: Give its growth inhibition value. Item: Cc1ccc(C)c(C(=O)CSc2n[nH]c(C)n2)c1
Data returned: 11.3

Data request: Any idea what growth inhibition was measured for Cc1cccc(OCCCC(=O)Nc2ccc(N3CCOCC3)cc2)c1 ?
Data returned: -11.5

Data request: Can you share its growth inhibition? I mean this molecule: COc1ccc(S(=O)(=O)N(CC(=O)Nc2ccc3c(c2)OCO3)c2ccccc2OC)cc1
Data returned: -13.9

Data request: # lookup: growth inhibition of Cc1cc(C)nc(/N=c2/ssnc2Cl)c1
Data returned: 89.9

Data request: Requested read-out: growth inhibition. Entry: CCOc1ccccc1C1N(c2ccc(OC)cc2)C(=O)C2CCCN21 (stereo unspecified)
Data returned: -10.4

Data request: Given CC(=O)N1c2ccccc2C(=O)C1N1CCCCC1 (stereo unspecified) , state its recorded growth inhibition.
Data returned: -9.52

Data request: Consider the molecule CCC(C(=O)OC)n1cnc2c(nnn2-c2cccc(Cl)c2)c1=O (stereo unspecified) and give its measured growth inhibition.
Data returned: -0.405

Data request: Reported growth inhibition, molecule CC(C)Cn1c(CN2C(=O)c3ccccc3C2=O)nc2ccccc2c1=O : ____
Data returned: -9.18

Data request: Given COc1ccc(Cn2c(=O)[nH]c3cc(C(=O)N4CCN(Cc5ccccc5)CC4)ccc3c2=O)cc1 , state its recorded growth inhibition.
Data returned: -4.04

Data request: What value of measured growth inhibition is listed for CC(NC(=O)CSc1ncnc2nc[nH]c12)c1ccccc1 (stereo unspecified) ?
Data returned: -5.1

Data request: I would be grateful if you could share the reported growth inhibition for Cc1ccc2oc(=O)c3cnn(CC(=O)N(CCCN4CCOCC4)Cc4ccco4)c3c2c1 .
Data returned: -28.7

Data request: Data request, read-out growth inhibition, for CC(C)Cc1cc(-c2ccco2)c(C#N)c(N)n1
Data returned: -17.1

Data request: Look at this molecule and give its reported growth inhibition. CC1(C)CC(=O)C=C(Nc2cc(-c3ccccc3)[nH]n2)C1
Data returned: 3.12

Data request: Fill in: growth inhibition of COC(=O)CN(c1ccccc1)S(=O)(=O)c1ccccc1 is ___
Data returned: -2.47

Data request: Query (molecule): c1ccc(-c2nnc(SCc3nc4ccccc4[nH]3)n2Cc2ccco2)nc1 ; field requested: growth inhibition
Data returned: 10.8

Data request: Need growth inhibition, item CCc1nnc(NC(=O)C2CCCCC2)s1
Data returned: 14.7

Data request: Data request, read-out growth inhibition, for Cc1ccc(C2CC(c3ccc(F)cc3)Nc3nc(N)nn32)cc1 (stereo unspecified)
Data returned: 5.93

Data request: Fill blank: measured growth inhibition of the molecule Cc1ccc(-c2nc(CS(=O)CC(=O)N3CCN(c4ncccn4)CC3)c(C)o2)cc1 (stereo unspecified) is ____.
Data returned: 10.7

Data request: Using the record for O=C1c2ccccc2C(=O)N1CCCc1nc2ccccc2c(=O)n1-c1cccnc1 , report its growth inhibition.
Data returned: 7.23

Data request: // growth inhibition lookup, key: O=C(Nc1nnc(C2CC2)o1)c1ccc(S(=O)(=O)N2CCCc3ccccc32)cc1
Data returned: -2.5

Data request: # lookup: growth inhibition of CC1=C(C(=O)OC(C)C)C(c2c(O)ccc3ccccc23)NC(=O)N1 (stereo unspecified)
Data returned: -6.33

Data request: I am curious: what growth inhibition value has been reported for O=C(NCCN1C(=O)C2C3C=CC(C3)C2C1=O)Nc1ccccc1O (stereo unspecified) ?
Data returned: -1.21

Data request: Fill in the blank: the reported growth inhibition of COC(=O)C1CCN(C(c2cccs2)c2sc3nc(C)nn3c2O)CC1 (stereo unspecified) is ____.
Data returned: 1.52

Data request: Query (molecule): CCC(=O)Nc1cccc(NC(=O)c2cc3ccccc3o2)c1 ; field requested: growth inhibition
Data returned: -9.17

Data request: I'd like to know its growth inhibition. The molecule in question is Cc1ccc(S(=O)(=O)NC(=O)Nn2c(C)nnc2C)cc1
Data returned: -6.25

Data request: growth inhibition lookup needed for O=C1C2C3C=CC(C3)C2C(=O)N1CCN1CCN(S(=O)(=O)c2ccc3ccccc3c2)CC1 (stereo unspecified) , thanks.
Data returned: 0.84
